biological target: FGFR3 (UniProt P22607); test: phosphorylation enrichment, bacterial display (enrichment ratio); higher = better substrate or ligand; peptides without Tyr show the background;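 further: 11-residue human phosphosite peptides and single-mutation variants displayed on the E. coli surface, counted by deep sequencing, each peptide's frequency after selection divided by its frequency in the unselected input library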;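 further: frequency after pTyr selection over input frequency; kinase dosed for 20-30% of maximal phosphorylation in three min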
Sequence (P22607 whole entry, looked up): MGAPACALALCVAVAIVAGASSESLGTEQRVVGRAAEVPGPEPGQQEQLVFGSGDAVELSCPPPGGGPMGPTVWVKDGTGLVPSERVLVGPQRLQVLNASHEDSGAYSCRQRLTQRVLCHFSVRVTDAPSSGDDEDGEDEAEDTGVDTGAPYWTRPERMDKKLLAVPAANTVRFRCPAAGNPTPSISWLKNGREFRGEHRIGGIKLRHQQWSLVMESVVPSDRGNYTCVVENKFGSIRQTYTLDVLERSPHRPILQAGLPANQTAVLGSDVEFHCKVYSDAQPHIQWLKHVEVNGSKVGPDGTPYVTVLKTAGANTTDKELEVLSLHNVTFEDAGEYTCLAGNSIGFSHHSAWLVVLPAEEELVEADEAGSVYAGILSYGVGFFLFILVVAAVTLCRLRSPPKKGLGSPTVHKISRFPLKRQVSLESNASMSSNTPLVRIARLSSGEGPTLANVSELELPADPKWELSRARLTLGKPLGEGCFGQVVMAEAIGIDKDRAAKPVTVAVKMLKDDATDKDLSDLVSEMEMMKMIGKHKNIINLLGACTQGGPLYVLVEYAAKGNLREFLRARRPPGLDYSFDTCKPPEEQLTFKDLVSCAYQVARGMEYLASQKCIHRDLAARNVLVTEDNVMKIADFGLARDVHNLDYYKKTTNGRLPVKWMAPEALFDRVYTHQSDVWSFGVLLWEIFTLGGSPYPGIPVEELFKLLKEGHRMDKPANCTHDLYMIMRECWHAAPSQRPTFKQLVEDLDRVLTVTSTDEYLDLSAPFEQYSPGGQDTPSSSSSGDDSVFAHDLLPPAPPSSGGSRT
Each record here notes measured phosphorylation enrichment.
Measure: phosphorylation enrichment

> print(dat)
                       residue.string  endpoint.value
 1   NTGVFYDLFGG [PTPN11_Y63_D61V_YF]           0.638
 2          TAALWYIFSHT [ENG_Y612_YF]            1.03
 3     DGMADCSDPSY [CDC5L_Y459_Y459C]           0.754
 4      MKSIKYMDKEV [CCDC60_Y41_I46V]           0.545
 5          NNPAYYVLEGV [INPPL1_Y987]            13.1
 6     TLQVMYGCDVG [HLA-B_Y123_S121V]           0.862
 7     CLRIDYERVSQ [DSP_Y1542_R1537C]            1.04
 8     KDHPDYKYPPR [SOX10_Y171_Q174P]           0.522
 9      KDHRDYKYQPR [SOX9_Y172_P170R]           0.514
10           VNFDDYTVNLG [GFPT1_Y367]           0.741
11      NVDGKYSYLKV [GRM3_Y478_G475D]           0.507
12  REENGYNTFAS [FGF10_Y161_I156R_YF]           0.862
13     RELGKYGLQAY [ALDH2_Y497_E496K]            0.47
